Measured values drawn from the domain aggregation screens of Martell et al. (2025) for this set.

assay: soluble fraction after stress (log2 fold change); higher = more stays soluble; pooled small domains, quantitative proteomics
settings: stress: 50 degC
recorded.endpoint: soluble fraction (log2)
Just the number.

Known results for sequences:
HMNRTKYYDFEGHPAKVVRLTLPVYLNKIGDEVVVYDSQKFAREASPISESQYNRMVAEIFQP; -0.354
HMIGVNMEKSTVEKFANELNLPIDLLLKQLESAGIKKTSGAEELLEADKSALLNYLQIEHGA; 0.085

Now look at this one.
I have this sequence here, "HMNQKTQMTKQILAESLKKLMLHHSFEKITIKDITDAAGFIRPTFYNHFKDKYDLVEWIFTEEI" , and I need its recorded soluble fraction (log2).
-0.364

====

Reported values of soluble fraction (log2) for individual entries
assay: soluble fraction after stress (log2 fold change); higher = more stays soluble; pooled small domains, quantitative proteomics
settings: stress: 50 degC
Respond with the number and no other words.

HMILKNVTSDLANKRLDKVASILFQTYSRTQIKKWILEGRVLVNGEISNPKDHVHENDEIEINPI; -1.04

soluble fraction (log2) lookup needed for "HMDARSTHIAAIHVLKSKLQLQDSDYRALLLTLTGQTSSKDLSEHQRRAVRNHMQQLAERMGVVQ" , thanks.
-0.533

// returns reported soluble fraction (log2) for input "HMLDYKSALQELLQAQRRSRPRYEVISTEGPDHERVFEVAVWLDNEELGRGKGRSKREAEHQAAQAALTQL"
0.068

What value of measured soluble fraction (log2) is listed for "HMSPDLNEVEEKVFRALNGVESMHVNKLGIELNLPVSELFFTLLELEMKNVVKALPGGMYKL" ?
-1.95

====

assay: soluble fraction after stress (log2 fold change); higher = more stays soluble; pooled small domains, quantitative proteomics
settings: stress: 50 degC
Note to self: values exactly at -0.4 are YES. So soluble fraction (log2) at or above -0.4 is YES, below is NO.

Check out these entries, answers already filled in.
HMVDPELFIWVESSKEPVYHLAYKIELFVHSTDPQDDVPVHRWQVFVDAHNGNILDKFDEVR; YES
HMAGWIPVEERLPDDLTNPITRDAYVYPVTVDLGDVTDIRYYSFWRGHWYNQGPETMDDLVIAWMLLPEPY; YES
HMSTMTEQEAFGLWERINDFIARTGNEPNRNSNDAHEVRMAEALNFIRIKVAEQRNSQSNSEAQNN; YES

Textbook exercise: given the entry "HMQAMDYEGFKKEILKMSDIDLSLYKEKQMKRRIDSLIRKNGYEHYEDYVQALKQDSGLYNEFINYLTI" , state whether its soluble fraction (log2) is greater than or equal to -0.4.
YES

Evaluate "HMTYSEEEIERDLYVRGTLYQIGDLVENKIDGTSGEIVRRGPNYVQYSDGENFYKAFLHSIQEV" : soluble fraction (log2) at minimum -0.4?
YES

Could you verify whether the entry "HMAAQDIILKRNAEQIEAIVKEITDTDVKYRKFTNTEGVTYSIRRSEVFSITYENGTMDLFA" shows soluble fraction (log2) of no less than -0.4?
YES

# bool: soluble fraction (log2) of "HMLKRLTVEFSAEMPKKMTSEQKEELASVLSEDPRPAYQNDENREYGLDYGEFSVKFKVKDGVLTVTSVTE" >= -0.4
YES

Check the entry "HMGKPVTMELLIPYSQGSLVHRISEAGEVAKTEYQNDGTYMQVTFTPSAKDHALMQEVASYRI" : does soluble fraction (log2) equal or exceed -0.4?
YES

# check: soluble fraction (log2) of "HMSFDENEALRKALDVFWEKGYDGTSLSDLTEAMGINKPSLYATFGNKDQLFLKAIEMYENR" is greater than or equal to -0.4
NO

====

assay: soluble fraction after stress (log2 fold change); higher = more stays soluble; pooled small domains, quantitative proteomics
settings: stress: 50 degC
Given measured soluble fraction (log2), output True if it is greater than or equal to -0.01 and False if not.

Worked set:
HMKKLPDDANDIIERVSSRLAQKFRFGYHTIDDMKQQAALFAWEGIYDSWDDSRPLENFLWIHVRNRLYN; True
HMVSTEDEISDKLLLDFALEKLSENEKQIVKLRYYNSLTQSKTAEILNMTQVQVSRSEKKILAKLRGII; False
HMVEFLMESTNGMYGIVKEGSSYYVQKGINESSLDYIGGMFMKDKNRFSSYSTALKRLELISGQET; False

// switching to the query sequence
Quick check, soluble fraction (log2) >= -0.01? "HMIVAHEINRHLGESDQPVEIPDNRREGAVAELLKTFNNDDAFREMDDGKYEVALDGEKVREAARSLLA"
True

====

assay: soluble fraction after stress (log2 fold change); higher = more stays soluble; pooled small domains, quantitative proteomics
settings: stress: 50 degC
recorded.endpoint: soluble fraction (log2)

Worked set:
HMNGELSQRQWQILRLIAQGLSNEQMARQLFVAPSTIKTHINHLYAKLGVRTRAEAQAIARQKLMA; -0.619
HMVPEMIRDVISKSIRDMGVLPDHMQINERIALIQSLKKQQILGIKGAVAETARQLGISVPTVYRYMKKG; -0.362
HMNLEIGAIIKSLRAKHKYTQEQLSAFLGVTPQAVSRWEAGNGYPDIELLPAIARFFEVSTDELLGL; -0.428
HMKRVPFAFAGDMLRWAAWLYHVEKRTQNEIAEELEVSRQTVANYLSEAMSQGLVQVQLRSDIIE; -1.52

# ---- query sequence ----
Consider the sequence shown here: "HMGVAFAPVEKIKHTKTGNELYAVKLAGRVEAEVFGQLRQKAKEYDGYYSKFSRAFLFSTPEDAEAFRAE" What is its recorded soluble fraction (log2)?
0.0208

====

assay: soluble fraction after stress (log2 fold change); higher = more stays soluble; pooled small domains, quantitative proteomics
settings: stress: 50 degC
The entries below are paired with their reported soluble fraction (log2).
Give only the figure.

Worked examples, 2 sequences total:
HMFIEHSKYKLSFKYNQLGKISNVINSNNGIIMDKHFDQNITLLAKLTENTFQEIIKHFPTIIIKRL; -3.19
HMQNWFADPKFEMFEDYGDAQSFYDTETKNIYVVMAEYGQKGSNTIQEITPDSEEYIPNYEKYKEYMENK; -0.387

Moving on to another sequence below.
So what's the measured soluble fraction (log2) for this one? "HMSDAVQLGLRLRAARERRGLSQQAVADALGLPRTAVTNMESGNRAVSTLELTKLAALYGQSTAFFLSP"
-0.1

====

Entries annotated with measured soluble fraction (log2)
assay: soluble fraction after stress (log2 fold change); higher = more stays soluble; pooled small domains, quantitative proteomics
settings: stress: 50 degC

A selection of reference data follows.
HMEDPAVYYKILQIPPDASLSEIHRAFEKITSAWDPERYPHISSWKETSAKKLQEIRNAYEKLLILRETG; -0.0409
HMSNYPYLLRTYEGKLAVFTDDLVQPDLVFDVYVRTLPELDQQQLSRGIRVKTYDELTSMIEDYI; -1.13
HMNDNQNKQMLWELLKDNRAFDNFDNKDYKTIIHLFNETVNTIDHRTPNLDLIKKNKIFIQDIMQKLSNL; -1.13
HMNLDPIKRKSEILSLFESHKNVKFNEIFFEKVNKEFTVLTFLIILELVKDNIIDFSQTQEGLIEFFTR; -0.115

Turning to the following sequence.
Need soluble fraction (log2), item "HMTELVIPDYFSKALAKNKKAKQVFEAFAYSHRKEYLQWITEAKTEETRNKRMATAIEWIAEGKGRNWKYA"
-1.69

====

assay: soluble fraction after stress (log2 fold change); higher = more stays soluble; pooled small domains, quantitative proteomics
settings: stress: 50 degC
Use -0.2 as the dividing line for soluble fraction (log2), with the line itself on the criterion met side and lower values as criterion not met.

Take a look at these entries with their results.
HMSNTVEDLIDDIGTVTKDSKDKIDAARKAYDGLTEDQKKLVPDSVLKTLTDAEAAYAKLTK; criterion met
HMTIPRLPFAFAKRFGIVLDNRPSGFVAAHKEGLLPHVLLEVQRFLGDAYTLEVVSDDDFERILGQVYQT; criterion not met
HMYTVRDGDTVFGILNRFGVSLDELLSLNPELSNGLKAGMVLKIK; criterion not met

Form field: soluble fraction (log2) at least -0.2? Entry: "HMGGQFVKVEVIAQIFGVTVRRVQQLTQEGVVKTTEIPGEGRRYELVPTIKTYIQYLSDKAY"
criterion not met

Is soluble fraction (log2) for "HMDSLEIEEPITVKSLSAASGLKISDIIRKLMQEGIMATANQVIDREQAEAVLIDYNVDLVVKR" at or above -0.2?
criterion not met

====

assay: soluble fraction after stress (log2 fold change); higher = more stays soluble; pooled small domains, quantitative proteomics
settings: stress: 50 degC
Where soluble fraction (log2) equals or exceeds -0.5, the correct label is fulfilled; where it does not, the label is not fulfilled.

Is soluble fraction (log2) at least -0.5? Consider "HMSDLFKYSPYKTLTEEQYKITYQIIERLKTDLSNGIPRISIIDGGAGTGKSILGIFLLKLLVDAQN"
fulfilled
